Values from patent US12552825B2

tested on: K. pneumoniae MP-648; experiment: MIC determination by CLSI broth dilution, K. pneumoniae MP-648; type: cell-based; conditions: Klebsiella pneumoniae, MP648, CLSI broth dilution; strain MP-648
MEASURED_QUANTITY: MIC

molecule="COCCCN1CCC(C[C@@H]2COC(=O)C(C)(C)C(=O)[C@H](C)[C@@H](O[C@@H]3O[C@H](C)C[C@H](N(C)C)[C@H]3O)[C@](C)(OC)C[C@@H](C)CN2C)CC1 [Compound 50]" tested_on="K. pneumoniae MP-648" result="< 4 µg/mL"

Exercise: MIC lookup needed for CCN1C[C@H](C)C[C@@](C)(OC)[C@H](O[C@@H]2O[C@H](C)C[C@H](N(C)C)[C@H]2O)[C@@H](C)C(=O)C(C)(C)C(=O)OC[C@H]1[C@H](O)CCN1CCCC1 [Compound 146] , thanks.
Key: < 4 µg/mL

Exercise: Quick one: MIC of CO[C@]1(C)C[C@@H](C)CN(C)[C@@H](CCCN(C)C2CCCC2)COC(=O)C(C)(C)C(=O)[C@H](C)[C@H]1O[C@@H]1O[C@H](C)C[C@H](N(C)C)[C@H]1O [Compound 99] ?
Key: < 4 µg/mL

Exercise: Looking for the measured MIC of CO[C@]1(C)C[C@@H](C)CN(C)[C@H](CC2=CCN(CC3CC3)CC2)COC(=O)C(C)(C)C(=O)[C@H](C)[C@H]1O[C@@H]1O[C@H](C)C[C@H](N(C)C)[C@H]1O [Compound 148] , can you help?
Key: 4 to 32 µg/mL

Exercise: For the molecule shown here, CCCN1CCC(=C[C@@H]2COC(=O)C(C)(C)C(=O)[C@H](C)[C@@H](O[C@@H]3O[C@H](C)C[C@H](N(C)C)[C@H]3O)[C@](C)(OC)C[C@@H](C)CN2C)CC1 [Compound 149] , give the reported MIC.
Key: < 4 µg/mL

Exercise: Entry CCCN1CC(C[C@H]2COC(=O)C(C)(C)C(=O)[C@H](C)[C@@H](O[C@@H]3O[C@H](C)C[C@H](N(C)C)[C@H]3O)[C@](C)(OC)C[C@@H](C)CN2C)C1 [Compound 79] has what MIC?
Key: > 32 µg/mL

Exercise: # lookup: MIC of CCN(C)CC[C@@H](O)[C@@H]1COC(=O)C(C)(C)C(=O)[C@H](C)[C@@H](O[C@@H]2O[C@H](C)C[C@H](N(C)C)[C@H]2O)[C@](C)(OC)C[C@@H](C)CN1C [Compound 3]
Key: < 4 µg/mL

Exercise: Param item = CO[C@]1(C)C[C@@H](C)CN(C)[C@@H](CN2CCN(C(C)C)CC2)COC(=O)C(C)(C)C(=O)[C@H](C)[C@H]1O[C@@H]1O[C@H](C)C[C@H](N(C)C)[C@H]1O [Compound 156] ; retrieve measured MIC.
Key: 4 to 32 µg/mL

---

system: E. coli MP-4; test: MIC determination by CLSI broth dilution, E. coli MP-4; assay type: cell-based; conditions: Escherichia coli, MP4, CLSI broth dilution; strain MP-4
// reported MIC per item

molecule=COCO[C@@H](C1CCN(CC2CC2)CC1)[C@@H]1COC(=O)C(C)(C)C(=O)[C@H](C)[C@@H](O[C@@H]2O[C@H](C)C[C@H](N(C)C)[C@H]2O)[C@](C)(OC)C[C@@H](C)CN1C measured_quantity=MIC result="4 to 32 µg/mL"
molecule=CCN1C[C@H](C)C[C@@](C)(OC)[C@H](O[C@@H]2O[C@H](C)C[C@H](N(C)C)[C@H]2O)[C@@H](C)C(=O)C(C)(C)C(=O)OC[C@@H]1CCCN(C)C(C)C measured_quantity=MIC result="< 4 µg/mL"
molecule=CO[C@]1(C)C[C@@H](C)CN(C)[C@H](C=C2CCN(CC3CC3)CC2)COC(=O)C(C)(C)C(=O)[C@H](C)[C@H]1O[C@@H]1O[C@H](C)C[C@H](N(C)C)[C@H]1O measured_quantity=MIC result="< 4 µg/mL"
molecule="CO[C@]1(C)C[C@@H](C)CN[C@H](CC[S+](C)[O-])COC(=O)[C@H](C)C(=O)[C@H](C)[C@H]1O[C@@H]1OC(C)CC(N(C)C)C1O (stereo partly drawn)" measured_quantity=MIC result="> 32 µg/mL"
molecule=CCCN1C[C@H](C)C[C@@](C)(OC)[C@H](O[C@@H]2O[C@H](C)C[C@H](N(C)C)[C@H]2O)[C@@H](C)C(=O)C(C)(C)C(=O)OC[C@H]1CCCN1CCCC1 measured_quantity=MIC result="< 4 µg/mL"
molecule=CO[C@]1(C)C[C@@H](C)CN[C@H](Cn2cc(-c3cccc(N)n3)nn2)COC(=O)[C@H](C)C(=O)[C@H](C)[C@H]1O[C@@H]1O[C@H](C)C[C@H](N(C)C)[C@H]1O measured_quantity=MIC result="> 32 µg/mL"
molecule=CO[C@]1(C)C[C@@H](C)CN(C)[C@@H](CCCN2CCC[C@H]2C)COC(=O)C(C)(C)C(=O)[C@H](C)[C@H]1O[C@@H]1O[C@H](C)C[C@H](N(C)C)[C@H]1O measured_quantity=MIC result="< 4 µg/mL"
molecule=CCN1CCN(C[C@H]2COC(=O)C(C)(C)C(=O)[C@H](C)[C@@H](O[C@@H]3O[C@H](C)C[C@H](N(C)C)[C@H]3O)[C@](C)(OC)C[C@@H](C)CN2CC)CC1 measured_quantity=MIC result="< 4 µg/mL"
molecule=CCN1C[C@H](C)C[C@@](C)(OC)[C@H](O[C@@H]2O[C@H](C)C[C@H](N(C)C)[C@H]2O)[C@@H](C)C(=O)C(C)(C)C(=O)OC[C@H]1[C@@H](CCN1CCCC1)OC measured_quantity=MIC result="< 4 µg/mL"
molecule="CO[C@]1(C)C[C@@H](C)CN[C@H](CO)COC(=O)[C@H](C)C(=O)[C@H](C)[C@H]1O[C@@H]1OC(C)CC(N(C)C)C1O (stereo partly drawn)" measured_quantity=MIC result="> 32 µg/mL"

Exercise: Entry under review: "CO[C@]1(C)C[C@@H](C)CN(C)[C@@H](CCCN(C)C)COC(=O)C(C)(C)C(=O)[C@H](C)[C@H]1O[C@@H]1O[C@H](C)C[C@H](N(C)C)[C@H]1O" . Reported MIC?
Key: < 4 µg/mL

Exercise: What value of measured MIC is listed for "CO[C@]1(C)C[C@@H](C)CN(C)[C@H](CC2CCN(C(C)C)CC2)C(C)(C)OC(=O)C(C)(C)C(=O)[C@H](C)[C@H]1O[C@@H]1O[C@H](C)C[C@H](N(C)C)[C@H]1O" ?
Key: < 4 µg/mL

Exercise: Suppose we examine the molecule "CO[C@]1(C)C[C@@H](C)CN(C)[C@@H](CCCN2CCOCC2)COC(=O)C(C)(C)C(=O)[C@H](C)[C@H]1O[C@@H]1O[C@H](C)C[C@H](N(C)C)[C@H]1O" ; what MIC value has been reported?
Key: < 4 µg/mL

Exercise: What does the data say about its MIC? Entry: CC[C@H]1OC(=O)[C@H](C)C(=O)[C@H](C)[C@@H](O[C@@H]2OC(C)CC(N(C)C)C2O)[C@](C)(OC)C[C@@H](C)CN(C)[C@H]1C (stereo partly drawn)
Key: > 32 µg/mL

Exercise: Data request, read-out MIC, for "CO[C@]1(C)C[C@@H](C)CN(C)[C@](C)(C[C@H]2C[C@H](N(C)C(C)C)C2)COC(=O)C(C)(C)C(=O)[C@H](C)[C@H]1O[C@@H]1O[C@H](C)C[C@H](N(C)C)[C@H]1O"
Key: 4 to 32 µg/mL
